# System: T-47D breast
# method.notes: NCI-60 one-dose screen, 48 h (100 = growth as untreated, 0 = no growth, -100 = all killed)
# condition.summary: 10 µM unless noted
About 83,000 compounds went through this panel and 20% of them were active in at least one assay; those are over-represented in the sample as a whole.
recorded.metric: growth (%)
Numbers only; they are read as %.

The following molecules have reported results that may help.
>>> print(df.to_string())
                                   molecule  assayed_system  unit_spec  readout_value
0  O=C(COc1ccc(Cl)cc1)N1CCN(Cc2ccc3c(c2)OCO3)CC1    T-47D breast          %           78.2
1  C=C1C(=O)O[C@H]2[C@H]1CC/C(C(=O)NCCOCCOCC(=O)Nc1ccc(OC)c(C(N)=O)c1O)=C\CC[C@@]1(C)O[C@@H]21    T-47D breast          %           70.6
2  COc1ccc(Cl)cc1NC(=O)c1cc2c([nH]1)-c1nc(NC(=O)C(C)(C)C)sc1CC2    T-47D breast          %           71.3
3                CCN(CC)CC(=O)Nc1c(C)cccc1C    T-47D breast          %            107
4  COc1ccc(Cl)cc1NC(=O)c1cc2c([nH]1)-c1nc(NC(=O)C(C)C)sc1CC2    T-47D breast          %           82.7

Prompt line: Requested read-out: growth. Entry: `S=c1n(CNc2ccc(Cl)nn2)nc(-c2cc(Cl)cc(Cl)c2Cl)n1/N=C/c1ccc(Cl)cc1`
Response line: 101

Prompt line: // returns reported growth for input C=CC(C)(O)CCC1C(=C)CCC2C(C)(C)CCCC12C (centres undefined)
Response line: 99.4
